Task for the reader: assign each of the following compounds its reported Ki.
Molecular target: recombinant human ALK5 (TGF-βR1) protein (Homo sapiens, UniProt P36897)
Construct: purchased Life Technologies PR9075A
Sequence (P36897 34-503): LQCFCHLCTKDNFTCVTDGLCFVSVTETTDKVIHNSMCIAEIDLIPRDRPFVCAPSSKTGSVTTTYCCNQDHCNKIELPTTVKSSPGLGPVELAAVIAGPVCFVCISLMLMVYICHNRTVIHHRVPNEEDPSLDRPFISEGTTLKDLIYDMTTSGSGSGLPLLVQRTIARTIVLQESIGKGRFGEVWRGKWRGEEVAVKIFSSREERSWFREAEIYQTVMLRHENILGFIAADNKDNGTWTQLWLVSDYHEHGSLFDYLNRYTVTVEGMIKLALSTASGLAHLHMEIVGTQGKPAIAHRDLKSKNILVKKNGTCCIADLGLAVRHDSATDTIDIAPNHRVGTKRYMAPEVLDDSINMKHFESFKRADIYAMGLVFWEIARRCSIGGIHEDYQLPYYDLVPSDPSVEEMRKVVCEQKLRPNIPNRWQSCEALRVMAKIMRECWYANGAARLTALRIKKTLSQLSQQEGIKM
Assay: Biochemical ALK5 (TGF-βR1) assay to measure pKi (LANCE Ultra ULight kinase assay)
Details: apparent pKi, converted from pIC50 by Cheng-Prusoff
Procedure: The assays were performed in a 384-well plate (24 columns×16 wells/rows). An Echo®550 Liquid Handler (Labcyte) was used to prepare various intermediate concentrations of compounds of the present disclosure in 100% DMSO. […] For dose-response analyses, percent inhibition versus compound concentrations were plotted, and pIC50 values were determined from a 4-parameter robust fit model with GraphPad Prism V5 Software (GraphPad Software, Inc., La Jolla, CA). […]

As a guide, the following entries are already answered.
compound=Cc1cccc(-c2nccc(Nc3ccnc(Nc4ccc(N5CCN[C@H](C(=O)O)C5)cc4)n3)n2)n1 endpoint=Ki result="0.0398 to 0.316 nM"
compound=Cc1cccc(-c2nccc(Nc3ccnc(Nc4ccc(-c5cn[nH]c5)cc4)n3)n2)n1 endpoint=Ki result="3.98 to 31.6 nM"
compound=Cc1cccc(-c2nc(Nc3ccnc(Nc4ccc(NC(=O)[C@H]5C[C@@H](N)C5)cc4)n3)c3cccn3n2)n1 endpoint=Ki result="0.0398 to 0.316 nM"
compound=Cc1cccc(-c2nccc(Nc3ccnc(Nc4ccc(N5CCOCC5)cc4O)n3)n2)n1 endpoint=Ki result="3.98 to 31.6 nM"
compound=Cc1cccc(-c2nccc(Nc3ccnc(Nc4ccc(N5CCNCC5)c(C)c4)n3)n2)n1 endpoint=Ki result="0.0398 to 0.316 nM"

Value sought for every listed compound: Ki.
1. CNC1CCN(S(=O)(=O)c2cccc(Nc3nccc(Nc4ccnc(-c5cccc(C)n5)n4)n3)c2)CC1
2. Cc1cccc(-c2nccc(Nc3ccnc(Nc4ccc5c(c4)CCNCC5)n3)n2)n1
3. COC(=O)C1CN(Cc2ccc(Nc3nccc(Nc4ccnc(-c5cccc(C)n5)n4)n3)cc2)CCN1C (stereo not drawn)
4. Cc1cccc(-c2nccc(Nc3ccnc(Nc4ccc(CN5CCC(C(=O)O)C5)cc4)n3)n2)n1 (stereo not drawn)
5. Cc1cccc(-c2nccc(Nc3ccnc(Nc4ccc(Cl)c(N)c4)n3)n2)n1
6. Cc1ccc(O)cc1-c1nccc(Nc2ccnc(Nc3ccc(N4CCC(N(C)C)CC4)cc3)n2)n1

Ans.
1. 0.398 to 3.16 nM
2. 0.0398 to 0.316 nM
3. 0.398 to 3.16 nM
4. 0.0398 to 0.316 nM
5. 0.398 to 3.16 nM
6. 0.398 to 3.16 nM

# map each compound to its Ki
1. Cc1cccc(-c2nccc(Nc3ccnc(Nc4ccc(N5CCCC(C(=O)OC6CCNCC6)C5)cc4)n3)n2)n1 (stereo not drawn)
2. Cc1cccc(-c2nccc(Nc3ccnc(Nc4nc(C(=O)OC[C@@H]5CCNC5)cs4)n3)n2)n1
3. Cc1cccc(-c2nccc(Nc3ccnc(Nc4ccc(NCCN5CCN(C(C)C)CC5)cc4)n3)n2)n1
4. Cc1cccc(-c2nccc(Nc3ccnc(Nc4ccc(CN5CCC[C@H](C(=O)O[C@@H]6CCN(C)C6)C5)cc4)n3)n2)n1

Ans.
1. 0.0398 to 0.316 nM
2. 0.398 to 3.16 nM
3. 0.0398 to 0.316 nM
4. 0.0398 to 0.316 nM
